protocol-notes: Restrictive medium S. cerevisiae growth inhibition, OD615, pilot screen of yeast lifespan reduction project, restrictive growth control (AID 706);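 also: modified DeaD lifespan yeast strain shifted to restrictive glucose medium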
condition-context: OD615, 48 h, at 10 µM, stronger effect = higher value
parameter-measured: growth inhibition (%)
Respond numerically; units are % and should not be typed.

Known growth inhibition results, listed for orientation:
Look at this compound and give its reported growth inhibition. c1ccc2c(c1)CCN(c1nc3ccccc3n3cnnc13)C2
10.2

Please give the measured growth inhibition for this compound: CCOc1ccc(NC(=O)CSc2nnc(Cc3cccn3C)n2-c2ccc(F)cc2)cc1
19.2

Returns the measured growth inhibition for the input compound. Input: CCOC(=O)C(C)c1nn(C)c(=O)c2ccccc12 (stereo unspecified)
-5.69

Please report the recorded growth inhibition for CCOc1ccc(Nc2ncnc3c2cnn3-c2ccccc2)cc1 .
3.48

Endpoint output: growth inhibition of NC(=O)c1ccsc1NC(=O)C1CCCCC1 . Value?
-5.7

Please give the measured growth inhibition for this compound: Cc1cc(N=CC2=C(O)CC(C)(C)CC2=O)no1
-3.7

Need growth inhibition, item O=C(CSc1nnc(Cn2c(=O)sc3ccccc32)n1-c1ccccc1)NCc1ccco1
-1.47

I am curious: what growth inhibition value has been reported for N#Cc1nc(COc2ccccc2F)oc1NCc1ccc(F)cc1 ?
6.15

---
Entry CCOCCCNC(=O)C(c1ccc(Cl)cc1)N1CCN(C(=O)c2ccco2)CC1 (stereo unspecified) : reported growth inhibition = ?
-17.1

Recorded growth inhibition for COc1cccc(NS(=O)(=O)c2nc3nc(C)cc(C)n3n2)c1 , please?
-2.87

# get_value(readout='growth inhibition', item= O=S(=O)(NCC(c1cccnc1)N1CCN(c2ccc(F)cc2)CC1)c1cccs1 (stereo unspecified) )
-0.165

* * *

protocol-notes: growth suppression of PTEN-deleted HCT116, pilot screen, cell-based, HCT116 clonal line, CellTiter-Glo (AID 824);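 also: 0% = 20 µM Hyamine control and 100% = vehicle cell control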
condition-context: 60 h, at 10 µM, stronger effect = lower value
Inconclusive results are not listed.
parameter-measured: viability (%)
The response must be a number in % with no trailing unit.

Give the measured viability of CCN1CCCC1CNC(=O)C1c2ccccc2C(=O)N(CCOC)C1c1ccc(F)cc1 (configuration not stated) .
98.1

Could you share which viability value was measured for Cc1ccccc1-c1nnc(-c2ccccc2)o1 ?
83.1

Sample CCC1CCCCN1C(=O)CSc1nnc(-c2cccc(Cl)c2)o1 (configuration not stated) — what was its viability?
91.5

GET /values?readout=viability&item= CCOc1ccc2nc(NC(=O)COC)sc2c1
102

Quick one: viability for O=C(Nc1nnc(-c2ccc3c(c2)CCCC3)o1)C1CCCCC1 ?
62

Param item = CC(=O)c1ccc(OCC(O)Cn2nnc3ccccc32)cc1 (configuration not stated) ; retrieve measured viability.
97.9

* * *

protocol-notes: inhibitors of the yeast RAM network, pilot screen, dse1pr::URA3 reporter, 5-FOA selection (AID 869);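 also: 0% = DMSO wells with no growth and 100% = 10 µM 1-NA-PP1 with full growth; RAM network block rescues cells from 5-FOA so hits raise OD615 growth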
condition-context: S. cerevisiae dse1pr::URA3 5-FOA growth, OD615, 2 d; at 10 µM; stronger effect = higher value; strain carries analog-sensitive mutant Cbk1 kinase
parameter-measured: inhibition (%)
Write the value in % as a bare number.

Observe how each entry below is paired with its result.
GET /values?readout=inhibition&item= O=C(CSc1nc2c([nH]c3ccccc32)c(=O)n1-c1cccc(Cl)c1)N1CCOCC1
1.64

What value of inhibition has been reported for the following compound? O=c1cc(N2CCOCC2)[nH]c(=O)n1Cc1ccc(F)cc1
1.04

Which inhibition is listed for COc1ccc2nc(N3CCCC(C(=O)NCCCN4CCN(C)CC4)C3)sc2c1 (stereo unspecified) ?
1.98

# get_value(readout='inhibition', item= Cc1cccc(NC(=O)CSc2nnc(-c3ccccc3)n2N)c1 )
1.93

Field request: inhibition | item: O=C(Cn1cc2c(n1)CCCC2)NCc1cccnc1
3.13

Further cases:
What measured inhibition goes with CNc1ccc(OC(F)F)cc1C(=O)c1ccccc1 ?
0.685

State the recorded inhibition for this entry: CCCOc1ccc(C(=O)NCCC(=O)NCCCC(=O)OCC)cc1
1.34

For the compound shown here, COc1ccc(-n2nc3cc(C)c(NC(=O)CC(C)C)cc3n2)cc1 , give the reported inhibition.
0.405

* * *

protocol-notes: Restrictive medium S. cerevisiae growth inhibition, OD615, pilot screen of yeast lifespan reduction project, restrictive growth control (AID 706);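 also: modified DeaD lifespan yeast strain shifted to restrictive glucose medium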
condition-context: OD615, 48 h, at 10 µM, stronger effect = higher value
Overview of reported growth inhibition across a group of compounds:
Report the figure in % without appending any unit label.

What does the record list as growth inhibition for O=C(NCCn1cc(SCC(=O)N2CCOCC2)c2ccccc21)c1ccccc1 ?
-5.21

Give its growth inhibition value. Item: COc1ccccc1NC(=O)c1cccc(S(=O)(=O)N2CCOCC2)c1
0.14

# lookup: growth inhibition of CSc1cccc(NC(=O)CN(c2cc(C)ccc2C)S(C)(=O)=O)c1
-2.52

New cases:
# input compound: COc1ccc(CCN=C2SCC(=O)N2C)cc1OC ; wanted: its growth inhibition
1.86

Dear colleague, I am looking for the recorded growth inhibition of the following compound: O=C(CSc1nccc2ccccc12)N1CCN(c2ccccn2)CC1
8.46

Requested read-out: growth inhibition. Entry: CCOC(=O)C1CCCN(C(=O)c2ccco2)C1 (centres undefined)
-12.6

Dear colleague, I am looking for the recorded growth inhibition of the following compound: CN(C)S(=O)(=O)Nc1ccc2c(c1)Cc1ccccc1-2
-9.69

Any idea what its growth inhibition is? The compound is Cc1nc2ccccc2n1-c1ccccc1
10.2

Any idea what growth inhibition was measured for COc1ccc(C)c(S(=O)(=O)Nc2ccc(OCC(=O)O)cc2)c1 ?
-4.93

* * *

protocol-notes: growth suppression of PTEN-deleted HCT116, pilot screen, cell-based, HCT116 clonal line, CellTiter-Glo (AID 824);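 also: 0% = 20 µM Hyamine control and 100% = vehicle cell control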
condition-context: 60 h, at 10 µM, stronger effect = lower value
Inconclusive results are not listed.
Each item that follows carries a reported viability.
Express it in %; write the number only.

Consider the molecule CCc1ccc(C2CC(c3ccccc3Cl)Nc3nc(N)nn32)cc1 (stereo not drawn) and give its measured viability.
80.7

// query viability value for entry CCOc1ccccc1N(CC(=O)Nc1ccccc1C(=O)O)S(C)(=O)=O
85.1

Query (molecule): O=C(O)c1cc(S(=O)(=O)Nc2ccc3c(c2)OCCO3)c(Cl)cc1Cl ; field requested: viability
88.4

Requested field: viability. Item: N#CC1=C2SCN(Cc3ccccc3)CN2C(=O)CC1c1cccs1 (stereo not drawn)
86

Entry under review: COc1ccc(C2C(C(=O)NCc3ccccn3)c3ccccc3C(=O)N2C)cc1OC (stereo not drawn) . Reported viability?
101

What value of measured viability is listed for COc1ccc(-c2nnc(SCC(=O)Nc3cc(F)ccc3C)o2)cc1 ?
97.6

Next:
Request the reported viability associated with O=C(NCCN1CCN(c2ccccc2F)CC1)C1CCCN(S(=O)(=O)c2cnc[nH]2)C1 (stereo not drawn)
98

Query: viability; subject: COc1ccc(OC)c(NC(=O)C2CCCNC2=O)c1 (stereo not drawn)
94.5

What value of measured viability is listed for CCOC(=O)NCc1ccc(CNC(=O)OCC)cc1 ?
90

Would you mind telling me what viability value was observed for CC(C)Sc1nc2c(cnn2-c2ccc(F)cc2)c(=O)[nH]1 ?
97.3

Reported viability for CCOc1ccccc1NC(=O)CSc1nnc(Cn2c(=O)sc3ccccc32)n1C : what is it?
92

Can you share its viability? I mean this molecule: CCC(=O)c1ccc(OCC(O)CN2C(=O)NC(C)(C)C2=O)cc1 (stereo not drawn)
92.8

* * *

The entries below come with measured viability values attached.
protocol-notes: growth suppression of PTEN-deleted HCT116, pilot screen, cell-based, HCT116 clonal line, CellTiter-Glo (AID 824);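 also: 0% = 20 µM Hyamine control and 100% = vehicle cell control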
condition-context: 60 h, at 10 µM, stronger effect = lower value
Results filed as inconclusive are left out.
# value in %; strip the unit string

For orientation, consider the following solved cases.
// returns reported viability for input CC(C)n1c(C(O)c2ccccc2)nc2ccccc21 (stereo unspecified)
88.1

Entry under review: Cc1ccc(-c2nc(CS(=O)CC(=O)NCCN3CCCC3)c(C)o2)cc1 (stereo unspecified) . Reported viability?
99.3

Quick one: viability of Cc1nn(Cc2nc(-c3cccs3)no2)c(C)c1Br ?
101

# viability lookup, item O=C(c1c(Cl)nc2sccn12)N1CCCc2ccccc21
98.2

Item under review: COc1cccc(C2CC(c3ccccc3C)n3nc(N)nc3N2)c1 (stereo unspecified) . Reported viability?
86.5

Now let's try a different one.
What measured viability goes with CCOC(=O)c1cc2c(=O)n3ccccc3nc2n(CCOC)c1=NC(=O)C(C)(C)C ?
96.9

* * *

Each item that follows carries a reported viability increase.
protocol-notes: viability gain of MRP-1-high H69AR cells under doxorubicin, pilot screen, MRP-1 activator project, CellTiter-Glo, duplicate (AID 807);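 also: compound pretreatment 18-22 h then 72 h combined with doxorubicin; 0% = doxorubicin alone and 100% = vehicle without doxorubicin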
condition-context: H69AR viability with doxorubicin, CellTiter-Glo luminescence; at 10 µM; stronger effect = higher value
Express your answer in %, writing the number without its unit.

Fill in: viability increase of CCCNC(=O)Cc1cc(=O)[nH]c(=O)[nH]1 is ___
0.56

Fill blank: measured viability increase of the compound COc1cccc(C2C(C(=O)OCc3ccccc3)=C(C)Nc3ncnn32)c1OC (stereo unspecified) is ____.
0.73

Which viability increase value is on record for CN(CC(=O)NC1CCCCCCC1)S(=O)(=O)c1cccc2cccnc12 ?
-1.32

---
Item COc1ccc2c(C)cc(=O)oc2c1C has what recorded viability increase?
-2.26

Quick one: viability increase for CC(C)COC(=O)c1ccc(NC(=O)C2C3CCC(C3)C2C(=O)O)cc1 (stereo unspecified) ?
0.09

What does the record list as viability increase for CCOC(=O)c1oc2cc(O)ccc2c(=O)c1-c1ccccc1OC ?
-1.98

# input compound: COc1ccc(C(c2sc3ncnn3c2O)N2CCN(c3ccccc3F)CC2)cc1OC (stereo unspecified) ; wanted: its viability increase
1.69

Record request: viability increase value, item Cc1cc(C)cc(Nc2cc(C)nc3nc(C)nn23)c1
-2.41

Quick check: viability increase of O=C(O)c1ccc(NS(=O)(=O)c2ccc3c(c2)OCCO3)cc1 ?
0.04

Would you kindly share the measured viability increase for O=S(=O)(Nc1ccc(-c2nc3cccnc3s2)cc1)c1cccs1 ?
-1.73

Need viability increase, item CCOC1CCCCC1NS(=O)(=O)c1ccc(Cl)cc1 (stereo unspecified)
-3.23

Recorded values, source PubChem BioAssay.
